FYI, the data here is from paper PMC6755732.

biological target: MtrR (Neisseria gonorrhoeae, UniProt P39897 1-210); test: fluorescence polarization; 1 mM taurocholate; FP: 20 mM Tris-HCl pH 8.0, 100 mM NaCl, 2.5% glycerol, 1 nM DNA, temperature not stated; EMSA: 20 mM Tris pH 8.0, 200 mM NaCl, 10% glycerol, 1 mM TCEP, 1 ug poly(dI-dC), room temperature, 2% agarose TAE; conditions: protein: recombinant; tags: His6 removed by thrombin; chain copies: 2
assay.endpoint: pKd
The scale used: pKd is minus the common logarithm of the concentration in molar units.

Ask: Give me measured pKd, please, for this binder: mtrC (mtrCDE) operator 27-mer, fluorescein (dsDNA) DNA 1: TTTTTATCCGTGCAATCGTGTATGTAT DNA 2: ATACATACACGATTGCACGGATAAAAA
Result: 7.70
